SYSTEM_TESTED: G-protein coupled bile acid receptor 1 (Homo sapiens)
ASSAY_SUMMARY: Agonist activity at human TGR5 transfected in HEK293T cells assessed intracellular cAMP level at 10 uM by HTRF assay
Type: functional, cell-based
CONDITIONS_USED: filed as agonist
Ranges used to classify Activity: lo = under 50%, med = from 50% up to 70%, hi = 70% and over

# COMPOUND_SMILES, ASSIGNED_CATEGORY
rows = [
    ("C[C@H](c1ccccc1)n1cncc1C(=O)N1CCCc2ccccc21", "lo"),
    ("C[C@H](c1ccccc1)n1cncc1C(=O)N(C)c1ccc(Cl)cc1", "med"),
    ("Cc1ccc(N(C)C(=O)c2cncn2[C@H](C)c2ccccc2)cc1", "med"),
    ("COc1ccc(N2CCN(C(=O)c3cncn3[C@H](C)c3ccccc3)CC2)cc1", "hi"),
    ("C[C@H](c1ccccc1)n1cncc1C(=O)N1CCOc2ccccc21", "med"),
    ("C[C@H](c1ccccc1)n1cncc1C(=O)N1CCN(C2CC2)c2ccccc21", "hi"),
    ("C[C@H](c1ccccc1)n1cncc1C(=O)N1CCN(c2ccccc2F)CC1", "hi"),
    ("C[C@H](c1ccccc1)n1cncc1C(=O)N1CCN(c2ccccc2)CC1", "lo"),
]

All values here come from ChEMBL document CHEMBL4680349.
